- targetUnderTest: biotinylated HCV core peptide 141-161 (Peptide 2) (HCV-1)
- assayExplanation: EIA, captured mAb
testReadout: Reactivity (OD492) (OD)
Write the number in OD without appending the unit.

Observe how each entry below is paired with its result.
binder	testReadout	reportedResult
HCV 208B-408 (antibody, V domains shown) VH: EVKLVESGGGLVQPGGSLRLSCASSGFTFTDYYMSWVRQPPGKALEWLGFIRNKAYGYTTEFSASVNGRFTISRDDSQSVPYLQMNTLRAEDSATYYCARVLYYDYGGFAYWGQGTLVTVST VL: DIQMTQSPASLSASVGETVTITCRASGNIHTYLAWYQQKQGKSPQLLVYNANTLADGVPSRFSGSGSGTQFSLKINSLQPDDFGSYYCQHFWSAPWTFGGGTQLEIKR	Reactivity (OD492)	0.2
HCV 208B-560 (antibody, V domains shown) VH: EVQLQQSGPELEKPGASVKISCKTSGYTFTEYAMHWVKQSHGMSLEWIGGINPSNGNAIYNQIFKDKATLTVDRSSSTAYMGLRSLTFGDSGVYFCVRRQLDFFDYWGQGASLTVSS VL: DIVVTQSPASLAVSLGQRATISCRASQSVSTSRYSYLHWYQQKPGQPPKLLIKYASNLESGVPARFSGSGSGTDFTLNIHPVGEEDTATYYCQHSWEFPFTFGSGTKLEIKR	Reactivity (OD492)	3.9

Proceeding to the next binder to report its Reactivity (OD492).
Endpoint output: Reactivity (OD492) of HCV 208B-612 (antibody, V domains shown) VH: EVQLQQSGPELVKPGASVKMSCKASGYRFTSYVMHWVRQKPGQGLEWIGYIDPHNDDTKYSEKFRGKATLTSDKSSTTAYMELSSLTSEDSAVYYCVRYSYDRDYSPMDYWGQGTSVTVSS VL: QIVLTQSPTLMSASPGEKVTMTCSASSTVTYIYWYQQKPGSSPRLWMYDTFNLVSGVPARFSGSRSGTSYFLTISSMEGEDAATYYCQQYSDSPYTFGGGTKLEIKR . Value?
3.04
